This listing pairs compounds with measured pIC50.
- Tested on: Hepa 1-6 (mouse hepatoma)
- measurement description: WST cytotoxicity assay, Hepa 1-6
- Type: cell-based
- run parameters: Hepa 1-6, 4 min drug exposure, WST 24 h after; read-out: Mean IC50
Schema: pIC50 number; meaning minus log10 of the concentration expressed in molar units.

chem smiles	pIC50
CCCCCCCCCCCCCCCCCC[Si](C)(C)Nc1ccc2c(c1)c(-c1ccccc1)[n+](CCC[N+](C)(CC)CC)c1cc(N[Si](C)(C)CCCCCCCCCCCCCCCCCC)ccc21.[I-].[I-]	3.55

Shifting focus to the compound that follows.
Exercise: Fill in: pIC50 of CCCCCCCCCCCC(=O)Nc1ccc2c(c1)c(-c1ccccc1)[n+](CCC[N+](C)(CC)CC)c1cc(NC(=O)CCCCCCCCCCC)ccc21.[I-].[I-] is ___
Key: 3.23

---

- System: SK-OV-3 (human ovarian carcinoma)
- measurement description: WST cytotoxicity assay, SK-OV-3
- Type: cell-based
- run parameters: SK-OV-3, 4 min drug exposure, WST 48 h after; read-out: Mean IC50
readout type: IC50

Exercise: Fill in: IC50 of CCCCCCCCCCCCCCCCCC[Si](C)(C)Nc1ccc2c(c1)c(-c1ccccc1)[n+](CCC[N+](C)(CC)CC)c1cc(N[Si](C)(C)CCCCCCCCCCCCCCCCCC)ccc21.[I-].[I-] is ___
Key: 257 µM

---

- Test system: SK-OV-3 (human ovarian carcinoma)
- measurement description: WST cytotoxicity assay, SK-OV-3
- Type: cell-based
- run parameters: SK-OV-3, 4 min drug exposure, WST 24 h after; read-out: Mean IC50
This listing pairs compounds with measured pIC50.
Schema: pIC50 number; meaning minus log10 of the concentration expressed in molar units.

chem smiles	system under test	numeric readout
CCCCCCCCCCCC(=O)Nc1ccc2c(c1)c(-c1ccccc1)[n+](CCC[N+](C)(CC)CC)c1cc(NC(=O)CCCCCCCCCCC)ccc21.[I-].[I-]	SK-OV-3 (human ovarian carcinoma)	3.34

Shifting focus to the compound that follows.
Exercise: Fill in: pIC50 of CCCCCCCCCCCCCCCCCC[Si](C)(C)Nc1ccc2c(c1)c(-c1ccccc1)[n+](CCC[N+](C)(CC)CC)c1cc(N[Si](C)(C)CCCCCCCCCCCCCCCCCC)ccc21.[I-].[I-] is ___
Key: 3.71

---

This listing pairs compounds with measured IC50.
- Tested on: SK-OV-3 (human ovarian carcinoma)
- measurement description: WST cytotoxicity assay, SK-OV-3
- Assay type: cell-based
- run parameters: SK-OV-3, 4 min drug exposure, WST 48 h after; read-out: Mean IC50
Give just the numeric value; µM need not be written.

Exercise: Fill in: IC50 of CCCCCCCCCCCCNC(=O)CCC(=CCC(=O)O)C(=O)NC(Cc1ccc(N(CCCl)CCCl)cc1)C(=O)O (stereo not drawn) is ___
Key: 384

Exercise: Queued: CCCCCCCCCCCC(=O)Nc1ccc2c(c1)c(-c1ccccc1)[n+](CCC[N+](C)(CC)CC)c1cc(NC(=O)CCCCCCCCCCC)ccc21.[I-].[I-]
Key: 342

Recorded values, source patent US20090074885A1.
